Species: Cavia porcellus
Assay details: Percent inhibition of calcium-induced contraction on K+ depolarized guinea pig aortic strip.
Format: functional, Aorta
Parameters: concentration or dose not given beside the values
Measured quantity: Activity (%)
Give the quantity in %, number only.

| Compound | Measured quantity | Reported measurement |
| --- | --- | --- |
| COc1ccc(C(C#N)(CC#CCNC(c2ccccc2)c2ccccc2)C(C)C)cc1OC.Cl (stereo not drawn) | Activity | 23 |
| COc1ccc(C(C#N)(CCCN(C)C2c3ccccc3-c3ccccc32)C(C)C)cc1OC.Cl (stereo not drawn) | Activity | 15 |

Now consider a different compound.
Name the recorded Activity for COc1ccc(C(C#N)(CCCNC2c3ccccc3CCc3ccccc32)C(C)C)cc1OC.Cl (stereo not drawn) .
24
